Origin of the recorded values: patent US20260116868A1

Assay system Cbl-b (Homo sapiens, UniProt Q13191); read-out recorded as IC50.

Guide cases for IC50, answers given:
CC(C)Oc1cc(-c2ccc(Cl)cc2C(=O)N2CC(F)C2)cc(NC(=O)c2cc(CNC[C@@H]3CCCO3)cn(C3CC3)c2=O)n1: < 100 nM
C[C@H](NCc1cc(C(=O)Nc2cc(-c3c(F)cc(C#N)cc3C(=O)N3CC(F)(F)C3)cc(C3CC3)n2)c(=O)n(C)c1)C1CC1: < 100 nM

Then there is this compound:
Input: Please indicate recorded IC50 of CC(C)Oc1cc(-c2ccc(C#N)cc2C(=O)N2CC(F)(F)C2)cc(NC(=O)c2cc(CNC[C@@H]3COCCO3)cn(C3CC3)c2=O)n1 measured with Cbl-b (Homo sapiens, UniProt Q13191).
Sequence (Q13191 whole entry, species assumed): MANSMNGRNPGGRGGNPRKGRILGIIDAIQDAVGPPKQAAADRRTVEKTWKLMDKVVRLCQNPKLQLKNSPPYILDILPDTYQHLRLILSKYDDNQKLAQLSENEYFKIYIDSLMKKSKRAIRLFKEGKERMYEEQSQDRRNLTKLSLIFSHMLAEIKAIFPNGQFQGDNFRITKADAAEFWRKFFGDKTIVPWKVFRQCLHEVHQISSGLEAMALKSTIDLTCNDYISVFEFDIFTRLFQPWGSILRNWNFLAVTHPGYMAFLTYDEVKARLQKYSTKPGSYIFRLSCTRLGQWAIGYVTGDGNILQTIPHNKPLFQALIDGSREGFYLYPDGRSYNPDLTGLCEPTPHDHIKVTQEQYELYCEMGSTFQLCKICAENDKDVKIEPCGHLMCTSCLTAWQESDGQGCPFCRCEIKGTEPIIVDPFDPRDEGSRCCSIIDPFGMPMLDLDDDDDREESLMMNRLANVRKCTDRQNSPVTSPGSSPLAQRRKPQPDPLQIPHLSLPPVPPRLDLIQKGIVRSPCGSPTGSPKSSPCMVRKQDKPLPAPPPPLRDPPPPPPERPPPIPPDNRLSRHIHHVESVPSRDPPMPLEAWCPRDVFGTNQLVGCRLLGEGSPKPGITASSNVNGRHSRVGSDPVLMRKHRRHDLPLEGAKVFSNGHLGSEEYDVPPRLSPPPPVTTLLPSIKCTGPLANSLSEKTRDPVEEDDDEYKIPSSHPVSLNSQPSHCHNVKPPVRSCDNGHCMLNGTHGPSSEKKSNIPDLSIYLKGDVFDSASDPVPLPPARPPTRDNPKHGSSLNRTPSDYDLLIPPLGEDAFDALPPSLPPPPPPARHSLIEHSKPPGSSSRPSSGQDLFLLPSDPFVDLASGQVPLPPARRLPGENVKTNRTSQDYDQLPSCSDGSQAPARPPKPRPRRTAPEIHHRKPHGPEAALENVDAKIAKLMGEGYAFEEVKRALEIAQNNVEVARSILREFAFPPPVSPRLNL
Output: < 100 nM

---

biological target: Cbl-b (Homo sapiens, UniProt Q13191); construct: biotin (biotinylated protein); assay: Cbl-b probe displacement HTRF binding assay; conditions: 0.4 nM Cbl-b, 150 nM BODIPY probe
As shown below, each of these molecules has a reported IC50 value.

CC1(NCc2cc(C(=O)Nc3cc(-c4ccc(C#N)cc4C(=O)N4CC(F)(F)C4)cc(C4CC4)n3)c(=O)n(C3CC3)c2)CCC1: < 100 nM
CC1CC(c2cccc(NC(=O)c3cc(CN4CCC[C@H](C)C4)cn(C4CC4)c3=O)c2)(c2nncn2C)C1 (mixture of isomers): < 100 nM

Input: Please indicate recorded IC50 of CO[C@H]1CCC[C@@H]1NCc1cc(C(=O)Nc2cc(-c3ccc(C#N)cc3C(=O)N3CC(F)(F)C3)cc(C3CC3)n2)c(=O)n(CC(F)(F)F)c1 measured with Cbl-b (Homo sapiens, UniProt Q13191).
Output: < 100 nM

Input: Please indicate recorded IC50 of CO[C@@H](C)CNCc1cc(C(=O)Nc2cc(-c3ccc(Cl)cc3C(=O)N3CC(C(F)(F)F)C3)cc(C3CC3)n2)c(=O)n(C2CC2)c1 measured with Cbl-b (Homo sapiens, UniProt Q13191).
Output: < 100 nM

Input: Please indicate recorded IC50 of Cn1cnnc1-c1cc(F)ccc1-c1cc(NC(=O)c2cc(-c3cccc(N)c3)cn(C3CC3)c2=O)nc(C2CC2)c1 measured with Cbl-b (Homo sapiens, UniProt Q13191).
Output: 100 to 1000 nM

---

As shown below, each of these compounds has a reported EC50 value.
test system: Jurkat cells; assay: IL-2 secretion assay in Jurkat cells activated with CD3/CD28 T Cell Activator; format: cell-based; details: Homo sapiens; Jurkat cells, CD3/CD28 T Cell Activator, 24 h, IL-2 AlphaLISA; read-out: IL-2 Secretion (EC50)

Cn1ccnc1-c1cc(C#N)ccc1-c1cc(NC(=O)c2cc(CNC3(C)CCC3)cn(C3CC3)c2=O)nc(C2CC2)c1: < 100 nM

Then there is this compound:
Input: Provide one value: measured EC50 of C=CCn1cc(CN(C)C)cc(C(=O)Nc2cc(-c3ccc(F)cc3-c3nncn3C)cc(C3CC3)n2)c1=O
Output: 1000 to 5000 nM

---

biological target: Cbl-b (Homo sapiens, UniProt Q13191)
pIC50: −log10 of the molar value.
quantity_kind: pIC50

Guide cases for pIC50, answers given:
CO[C@H]1C[C@@](c2cccc(NC(=O)c3cc(CN4CCC[C@H](C)C4)cn(C4CC4)c3=O)c2)(c2nncn2C)C1: 6.00 to 7.00
COCCNCc1cc(C(=O)Nc2cc(-c3c(F)cc(C#N)cc3C(=O)N3CC(F)(F)C3)cc(C3CC3)n2)c(=O)n(C2CC2)c1: > 7.00
Cn1cc(CNC[C@@H]2COCCO2)cc(C(=O)Nc2cc(-c3ccc(OC(F)F)cc3C(=O)N3CC(F)(F)C3)cc(C3CC3)n2)c1=O: > 7.00
CC(C)Oc1cc(-c2ccc(C#N)cc2C(=O)N2CC(F)(F)C2)cc(NC(=O)c2cc(CN[C@@H](C)C(C)(C)F)cn(C3CC3)c2=O)n1: > 7.00
C[C@H]1CCCN(Cc2cc(C(=O)Nc3cc(-c4ccc(F)cc4C(=O)N4CC(F)C4)cc(C4CC4)n3)c(=O)n(C3CC3)c2)C1: > 7.00

Then there is this compound:
Input: Provide one value: measured pIC50 of CO[C@@H](C)CNCc1cc(C(=O)Nc2cc(-c3ccc(OC(F)F)cc3C(=O)N3CC(F)C3)cc(OC(C)C)n2)c(=O)n(C2CC2)c1
Output: > 7.00
